- Test system: PC-12
- ASSAY_NAME: Cytotoxicity against rat PC12 cells assessed as cell viability at 10 uM incubated for 24 hrs by CCK-8 assay relative to control
- Assay type: functional
- RUN_CONDITIONS: read-out: Activity
Kindly apply the following: met if viability at 10 µM is less than 60%, not met in every other case.

Some entries whose results are on file:
compound=COc1ccc(/C=C/C(=O)c2ccc(O)cc2)c2cc(-c3ccc(C)cc3)oc12 assay_target=PC-12 class_assignment=met
compound=COc1cc(C(=O)/C=C/c2ccc(OC)c3oc(-c4ccc(C)cc4)cc23)cc(OC)c1OC assay_target=PC-12 class_assignment=met
compound=COc1ccc(C(=O)/C=C/c2ccc(OC)c3oc(-c4ccc(C)cc4)cc23)cc1OC assay_target=PC-12 class_assignment=met
compound=COc1ccc(-c2cc3c(/C=C/C(=O)NCCc4ccc(O)c(O)c4)ccc(OC)c3o2)cc1OC assay_target=PC-12 class_assignment="not met"
compound=COC(=O)[C@@H](NC(=O)/C=C/c1ccc(OC)c2oc(-c3ccc(C)cc3)cc12)C(C)C assay_target=PC-12 class_assignment="not met"

Query: State whether 60% exceeds viability at 10 µM recorded for "COc1cc(C(=O)/C=C/c2ccc(OC)c3oc(-c4ccc(OC)c(OC)c4)cc23)ccc1O" .
Reply: met

Query: Please check: viability at 10 µM for "COC(=O)[C@@H](NC(=O)/C=C/c1ccc(OC)c2oc(-c3ccc(C)cc3)cc12)c1ccc(O)cc1" , strictly under 60% or not?
Reply: not met

Query: A record lists "COc1ccc(-c2cc3c(/C=C/C(=O)NCCc4ccc(O)c(O)c4)ccc(OC)c3o2)cc1" . Is its viability at 10 µM below 60%?
Reply: not met

Query: is_below(viability at 10 µM, 60%) for "COc1ccc(/C=C/C(=O)c2cccc(O)c2)c2cc(-c3ccc(C)cc3)oc12" ?
Reply: met

Query: hey, is viability at 10 µM for "COC(=O)[C@H](CC1CCCCC1)NC(=O)/C=C/c1ccc(OC)c2oc(-c3ccc(C)cc3)cc12" lower than 60% or not?
Reply: not met

Query: In the record for "COc1ccc(/C=C/C(=O)c2ccc3c(c2)OCO3)c2cc(-c3ccc(C)cc3)oc12" , is viability at 10 µM less than 60%?
Reply: met

Query: # strict comparison: is reported viability at 10 µM < 60%? input = "COC(=O)[C@H](Cc1c[nH]c2ccccc12)NC(=O)/C=C/c1ccc(OC)c2oc(-c3cc(OC)cc(OC)c3)cc12"
Reply: not met

Query: viability at 10 µM strictly < 60% for this compound? "COc1ccc(/C=C/C(=O)c2ccc(N3CCOCC3)cc2)c2cc(-c3ccc(C)cc3)oc12"
Reply: not met

Query: Strictly below 60%: is that where viability at 10 µM of "COc1cc(OC)cc(-c2cc3c(/C=C/C(=O)NCCc4ccc(O)c(O)c4)ccc(OC)c3o2)c1" sits?
Reply: not met

Query: Confirm or reject: viability at 10 µM of "COc1cc(OC)cc(-c2cc3c(/C=C/C(=O)c4ccc(O)c(OC)c4)ccc(OC)c3o2)c1" lies strictly below 60%
Reply: met

Query: Given CC(C)(C)OO [TERT-BUTYL HYDROPEROXIDE] , is recorded viability at 10 µM strictly lower than 60%?
Reply: met

Query: Quick check: viability at 10 µM of "COc1cccc(C(=O)/C=C/c2ccc(OC)c3oc(-c4ccc(C)cc4)cc23)c1" under 60%?
Reply: met

Query: Quick check: viability at 10 µM of "CC[C@H](NC(=O)/C=C/c1ccc(OC)c2oc(-c3ccc(C)cc3)cc12)C(=O)OC" under 60%?
Reply: not met

Query: hey, is viability at 10 µM for "COc1ccc(/C=C/C(=O)c2ccco2)c2cc(-c3ccc(C)cc3)oc12" lower than 60% or not?
Reply: not met

Query: API: query returns whether the compound falls strictly under 60% in viability at 10 µM. Query: "COc1ccc(C(=O)/C=C/c2ccc(OC)c3oc(-c4ccc(C)cc4)cc23)cc1"
Reply: met

Query: I wonder whether "COc1ccc(-c2cc3c(/C=C/C(=O)c4ccc(O)c(OC)c4)ccc(OC)c3o2)cc1" has viability at 10 µM below 60%. Can you tell?
Reply: not met

Query: Strictly below 60%: is that where viability at 10 µM of "COC(=O)[C@H](Cc1c[nH]c2ccccc12)NC(=O)/C=C/c1ccc(OC)c2oc(-c3ccc(OC)c(OC)c3)cc12" sits?
Reply: met

Query: Does the reported viability at 10 µM of "COc1ccc(C(=O)/C=C/c2ccc(OC)c3oc(-c4ccc(C)cc4)cc23)cc1O" stay below 60%?
Reply: met

Just for reference, ChEMBL document CHEMBL6177962 is where these values come from.
